Source of measurements: the supplement of paper PMC10127200

Listed below: Euclidean distance values for each entry.
Tested on: A549
Assay: Euclidean distance of Cell Painting phenotypic profile (signed KS, 77 features) to DMSO centroid (dimensionless distance); 5 or 10 uM (library dependent); higher = stronger phenotypic change vs DMSO (phenoactivity)
Conditions: 48 h
Where a name gives a salt, the structure may show the parent alone.

{"COMPOUND": "Cc1ccc(NS(=O)(=O)c2cccc(C#N)c2)c2[nH]cc(C#N)c12", "SYSTEM NAME": "A549", "Euclidean distance": 2.34}
{"COMPOUND": "CCn1c2ccccc2c2cc(Nc3ccnc(NCCCN4CCOCC4)n3)ccc21", "SYSTEM NAME": "A549", "Euclidean distance": 2.84}
{"COMPOUND": "COc1ccc(C(=O)Nc2sc3c(c2C(N)=O)CCCC3)cc1OC", "SYSTEM NAME": "A549", "Euclidean distance": 2.61}
{"COMPOUND": "CN(C)[C@@H](CCOc1cccc2ccccc12)c1ccccc1 [Dapoxetine HCl]", "SYSTEM NAME": "A549", "Euclidean distance": 0.787}
{"COMPOUND": "COc1ccnc(C[S+]([O-])c2nc3cc(OC(F)F)ccc3[nH]2)c1OC (stereo unspecified) [Pantoprazole]", "SYSTEM NAME": "A549", "Euclidean distance": 0.522}
{"COMPOUND": "CN(NC(=O)CC(=O)NN(C)C(=S)c1ccccc1)C(=S)c1ccccc1 [Elesclomol (STA-4783)]", "SYSTEM NAME": "A549", "Euclidean distance": 5.4}
{"COMPOUND": "NC[C@H]1O[C@H](O[C@H]2[C@H](O[C@@H]3O[C@H](CO)[C@@H](O)[C@H]3O)[C@@H](O)[C@H](N)C[C@@H]2N)[C@H](N)[C@@H](O)[C@@H]1O [Ribostamycin Sulfate]", "SYSTEM NAME": "A549", "Euclidean distance": 1.17}
{"COMPOUND": "COCCOc1cnc2ccn([C@H](C)c3nnc4c(F)cc(-c5cnn(C)c5)cn34)c(=O)c2c1", "SYSTEM NAME": "A549", "Euclidean distance": 1.18}
{"COMPOUND": "Nc1cccc(-c2cc3c(Oc4cccc(O)c4)ncnc3[nH]2)c1", "SYSTEM NAME": "A549", "Euclidean distance": 3.48}
{"COMPOUND": "CCC[S+]([O-])c1ccc2[nH]c(NC(=O)OC)nc2c1 (stereo unspecified) [Albendazole Oxide]", "SYSTEM NAME": "A549", "Euclidean distance": 1.23}
{"COMPOUND": "CC(C)NCC(O)COc1ccc(CC(N)=O)cc1 (stereo unspecified) [Atenolol]", "SYSTEM NAME": "A549", "Euclidean distance": 0.613}
{"COMPOUND": "O=C(c1ccc(C(=O)N2CCC(N3CCCC3)CC2)c(Nc2ccccc2)c1)N1CCC(N2CCCC2)CC1", "SYSTEM NAME": "A549", "Euclidean distance": 1.05}
{"COMPOUND": "O=C(Nc1ccc(O)cc1)c1ccccc1O [Osalmid]", "SYSTEM NAME": "A549", "Euclidean distance": 0.634}
{"COMPOUND": "CCC(=O)O[C@]1(C(=O)SCF)[C@H](C)C[C@H]2[C@@H]3C[C@H](F)C4=CC(=O)C=C[C@]4(C)[C@@]3(F)[C@@H](O)C[C@@]21C [Fluticasone propionate]", "SYSTEM NAME": "A549", "Euclidean distance": 2.26}
{"COMPOUND": "NC(=O)c1noc([C@H](CCCC2CCCCC2)CC(=O)NO)n1", "SYSTEM NAME": "A549", "Euclidean distance": 0.66}
{"COMPOUND": "CCc1ccc(/C=C2/SC(=S)NC2=O)cc1", "SYSTEM NAME": "A549", "Euclidean distance": 0.809}
{"COMPOUND": "C[C@H]1COC2=C1C(=O)C(=O)c1c2ccc2c1CCCC2(C)C [Cryptotanshinone]", "SYSTEM NAME": "A549", "Euclidean distance": 2.51}
{"COMPOUND": "Cc1ccc(Sc2ccccc2N2CCNCC2)c(C)c1 [Vortioxetine]", "SYSTEM NAME": "A549", "Euclidean distance": 2.71}
{"COMPOUND": "C[C@H](NC(=O)[C@@H](O)c1cc(F)cc(F)c1)C(=O)N[C@@H]1C(=O)N(C)c2ccccc2-c2ccccc21", "SYSTEM NAME": "A549", "Euclidean distance": 1.36}
{"COMPOUND": "CC(C)[N+](C)(CCOC(=O)C1c2ccccc2Oc2ccccc21)C(C)C [Propantheline bromide]", "SYSTEM NAME": "A549", "Euclidean distance": 0.839}
{"COMPOUND": "C[C@@H](Nc1cc(F)cc(F)c1)c1cc(C(=O)N(C)C)cc2c(=O)cc(N3CCOCC3)oc12", "SYSTEM NAME": "A549", "Euclidean distance": 1.94}
{"COMPOUND": "CCCSc1ccc2[nH]c(NC(=O)OC)nc2c1 [Albendazole]", "SYSTEM NAME": "A549", "Euclidean distance": 2.42}
{"COMPOUND": "Cn1cc(-c2nc(N[C@@H]3CCCC[C@@H]3N)c(F)c3c2C(=O)NC3)cn1", "SYSTEM NAME": "A549", "Euclidean distance": 2.93}
{"COMPOUND": "C1COC(NC(C2CC2)C2CC2)=N1 [Rilmenidine Phosphate]", "SYSTEM NAME": "A549", "Euclidean distance": 0.742}
{"COMPOUND": "COc1ccc(-c2cnc3c(-c4cccc5ncccc45)cnn3c2)cc1", "SYSTEM NAME": "A549", "Euclidean distance": 0.926}
{"COMPOUND": "N#Cc1ccc(C(c2ccc(C#N)cc2)n2cncn2)cc1 [Letrozole]", "SYSTEM NAME": "A549", "Euclidean distance": 1.88}
{"COMPOUND": "CC#CCn1c(N2CCC[C@@H](N)C2)nc2c1c(=O)n(Cc1nc(C)c3ccccc3n1)c(=O)n2C [Linagliptin]", "SYSTEM NAME": "A549", "Euclidean distance": 0.984}
{"COMPOUND": "Cn1cc(C(=O)[C@@H]2CCc3[nH]cnc3C2)c2ccccc21 [Ramosetron Hydrochloride]", "SYSTEM NAME": "A549", "Euclidean distance": 0.965}
{"COMPOUND": "O=C(O)c1cc(O)c2c(c1)[C@H]([C@H]1c3cc(C(=O)O)cc(O)c3C(=O)c3c(O[C@@H]4O[C@H](CO)[C@@H](O)[C@H](O)[C@H]4O)cccc31)c1cccc(O[C@@H]3O[C@H](CO)[C@@H](O)[C@H](O)[C@H]3O)c1C2=O [Sennoside A]", "SYSTEM NAME": "A549", "Euclidean distance": 0.674}
{"COMPOUND": "O=C(NCCO[N+](=O)[O-])c1cccnc1 [Nicorandil]", "SYSTEM NAME": "A549", "Euclidean distance": 0.857}
{"COMPOUND": "CCCc1nc(C(C)(C)O)c(C(=O)O)n1Cc1ccc(-c2ccccc2-c2nnn[nH]2)cc1 [Olmesartan]", "SYSTEM NAME": "A549", "Euclidean distance": 0.9}
{"COMPOUND": "Cc1nc(Nc2ncc(C(=O)Nc3c(C)cccc3Cl)s2)cc(N2CCN(CCO)CC2)n1 [Dasatinib]", "SYSTEM NAME": "A549", "Euclidean distance": 3.53}
{"COMPOUND": "O=C(N/N=C/c1ccc([N+](=O)[O-])o1)c1ccc(O)cc1 [Nifuroxazide]", "SYSTEM NAME": "A549", "Euclidean distance": 1.52}
{"COMPOUND": "CC1(C)OCCn2c1nc1c(N3CCOCC3)nc(-c3cnc(N)nc3)nc12", "SYSTEM NAME": "A549", "Euclidean distance": 2.94}
{"COMPOUND": "O=C(O)Cc1ccccc1Nc1c(Cl)cccc1Cl [Diclofenac Epolamine]", "SYSTEM NAME": "A549", "Euclidean distance": 0.571}
{"COMPOUND": "O=C1NC(=O)/C(=C/c2ccc(-c3ccc(F)cc3O)o2)S1", "SYSTEM NAME": "A549", "Euclidean distance": 0.855}
